Values from ChEMBL document CHEMBL4043108

biological target: Signal transducer and activator of transcription 3 (Homo sapiens) (UniProt P40763); test: Inhibition of STAT3 transcriptional activity in human MDA-MB-468 cells at 5 uM incubated for 24 hrs by STAT3-dependent luciferase reporter assay; format: cell-based
Sequence (P40763 whole entry): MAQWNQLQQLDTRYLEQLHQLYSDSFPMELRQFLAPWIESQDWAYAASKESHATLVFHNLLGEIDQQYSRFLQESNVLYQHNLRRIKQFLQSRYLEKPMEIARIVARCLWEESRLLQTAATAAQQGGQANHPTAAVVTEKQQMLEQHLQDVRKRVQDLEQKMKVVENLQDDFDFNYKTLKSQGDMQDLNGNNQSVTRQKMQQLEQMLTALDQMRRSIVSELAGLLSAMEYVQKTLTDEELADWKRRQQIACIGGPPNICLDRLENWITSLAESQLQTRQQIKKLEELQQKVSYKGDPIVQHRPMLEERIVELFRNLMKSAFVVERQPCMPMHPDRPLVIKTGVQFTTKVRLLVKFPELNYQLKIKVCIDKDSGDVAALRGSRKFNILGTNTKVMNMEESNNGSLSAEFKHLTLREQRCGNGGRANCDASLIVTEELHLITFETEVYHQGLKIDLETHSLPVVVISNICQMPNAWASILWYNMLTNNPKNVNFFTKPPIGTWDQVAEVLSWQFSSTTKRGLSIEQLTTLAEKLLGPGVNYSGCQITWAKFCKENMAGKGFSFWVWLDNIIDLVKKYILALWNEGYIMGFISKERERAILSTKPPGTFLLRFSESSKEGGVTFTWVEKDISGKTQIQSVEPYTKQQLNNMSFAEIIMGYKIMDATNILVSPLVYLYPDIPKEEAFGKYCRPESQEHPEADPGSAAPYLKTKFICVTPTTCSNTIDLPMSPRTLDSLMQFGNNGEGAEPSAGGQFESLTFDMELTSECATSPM
Calls of active or inactive are those of the source. No cut-off for these calls is given here.
Reply using exactly one outcome from Y for active, N for inactive

Consider the following illustrative entries.
C=C1C(=O)O[C@@H]2CC[C@H](COC)[C@]12O | N
O=C1O[C@@H]2CC[C@H](CBr)[C@]2(O)[C@]12CO2 | N
C=C1C(=O)O[C@@H]2CC[C@H](COC)[C@]12OC | N
C=C[C@H](C)[C@@H](O)[C@H]1CC[C@H]2CC(=O)C(=C)[C@]21O | N
C[C@H]1C=C2C(=O)O[C@@H]3CC[C@H](C1=O)[C@]23O | N
C=CC[C@@H](O)[C@H]1CC[C@H]2OC(=O)C(=C)[C@@]12O | N
C=C1C(=O)C[C@@H]2CC[C@H](CO)[C@]12O | N
C=C1C(=O)O[C@@H]2CC[C@H](CBr)[C@]12OC | Y

We now examine a further compound.
# input What is the recorded call for this compound in the test? `C=C1C(=O)O[C@@H]2CC[C@H](CO)[C@H]12`
# output N

====

molecular target: Signal transducer and activator of transcription 3 (Homo sapiens) (UniProt P40763); assay: Inhibition of STAT3 transcriptional activity in human MDA-MB-468 cells at 5 uM incubated for 24 hrs by STAT3-dependent luciferase reporter assay; type: cell-based
Calls of active or inactive are those of the source. No cut-off for these calls is given here.
MEASUREMENT_KIND: inhibition

Examples from the recorded data:
C[C@@H]1C=C2C(=O)O[C@@H]3CC[C@H](C1)[C@]23O | Active
C=C1C(=O)O[C@@H]2CC[C@H](CO)[C@]12OC | inactive
C=C1C(=O)O[C@@H]2CC[C@H](CBr)[C@]12OCC | Active
C=C1C(=O)O[C@@H]2CC[C@H](CBr)[C@]12O | Active
C=CCC(=O)[C@H]1CC[C@H]2OC(=O)C(=C)[C@@]12O | inactive
C=C[C@@H](C)[C@H](O)[C@H]1CC[C@H]2CC(=O)C(=C)[C@]21O | inactive
C[C@@H]1C(=O)O[C@@H]2CC[C@H](CBr)[C@]12O | inactive
C[C@@H]1C=C2C(=O)O[C@@H]3CC[C@H]([C@H]1O)[C@]23O | inactive

# input Give a short answer stating reported inhibition for `C[C@H]1C=C2C(=O)O[C@@H]3CC[C@H]([C@@H]1O)[C@]23O` .
# output inactive

# input Give a short answer stating reported inhibition for `O=C1O[C@@H]2CC[C@@H]3[C@@H](O)CC=C1[C@@]32O` .
# output inactive

# input Give a short answer stating reported inhibition for `C=CC[C@H](O)[C@H]1CC[C@H]2OC(=O)C(=C)[C@@]12O` .
# output inactive

# input Give a short answer stating reported inhibition for `O=C1O[C@@H]2CC[C@@H]3[C@H](O)CC=C1[C@@]32O` .
# output inactive
